Value source: patent US20160200799A1

- TESTED TARGET: Influenza virus A/Indonesia/5/2005/PR8-IBCDC-RG2 (H5N1) (Influenza A virus A/Indonesia/5/2005/PR8-IBCDC-RG2 (H5N1))
- ASSAY TEXT: cell-based or functional assay
Would you mind telling me the reported Neutralizing activity (%) at 250 µg/ml of each entry?
# unit: % | format: bare number

q: Reported Neutralizing activity (%) at 250 µg/ml for Group 44 representative clone F081-008, Fab-PP-type antibody (Fab, V domains shown) VH: QVQLVQSGAEVKKPGSSVKVSCKASGGTFSSFSTYTISWVRQAPGQGLEWMGRSIPLLGITNYAQKFQGRVTITADISTSTAYMELSSLRSEDTAVYYCARYQSSDYYNSEYFQHWGQGTLVTVSS VL: EIVLTQSPGTLSLSLGERVTLSCRASQNVGTNYLAWYQQKPGQAPRLLIYGASSRATGVPDRFSGSGSGTDFTLTISRLAPEDFAVYYCQQYSSSPLTFGGGTKLEIK : what is it?
a: 56.5

q: Okay, and Group 3 representative clone F081-281, Fab-PP-type antibody (Fab, V domains shown) VH: QVQLVQSGSEVKKPGSSVKVSCSFKASGGIISKYAITWVRQAPGQGLEWMGGIIAIFGSTNYAQKFQGRLTITSDESTSTAYMELSSLTSEDTAVYYCGRGPHYYESHLDYWGQGTLVTVSS VL: EIVLTQSPGTLSLSPGERATLSCRASQGMSSSFLAWYQQKPGQPPRLLISGASTRATGIPDRFSGSGSGTDFTLTINRLEPEDFAVYYCQQYGSSPRTFGQGTKVEIK ?
a: 85.9
